Recorded EC50 by entry
biological target: F508delCFTR (Homo sapiens, UniProt P13569, DEL508-508); construct: expressed in transfected cells; host or cells: CFBE41o- human lung derived epithelial cells (CFBE41o-F508delCFTR-HRP), doxycycline-inducible; experiment: Cell Surface Expression-Horse Radish Peroxidase (CSE-HRP) Assay; type: cell-based; settings: test compound with co-corrector; read-out: EC50 (with co-corrector);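 for EC50 (with co-corrector): co-corrector chromenyl benzoic acid corrector at 2 or 3 µM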
Sequence (P13569 with tags, fused parts or gaps DEL508-508): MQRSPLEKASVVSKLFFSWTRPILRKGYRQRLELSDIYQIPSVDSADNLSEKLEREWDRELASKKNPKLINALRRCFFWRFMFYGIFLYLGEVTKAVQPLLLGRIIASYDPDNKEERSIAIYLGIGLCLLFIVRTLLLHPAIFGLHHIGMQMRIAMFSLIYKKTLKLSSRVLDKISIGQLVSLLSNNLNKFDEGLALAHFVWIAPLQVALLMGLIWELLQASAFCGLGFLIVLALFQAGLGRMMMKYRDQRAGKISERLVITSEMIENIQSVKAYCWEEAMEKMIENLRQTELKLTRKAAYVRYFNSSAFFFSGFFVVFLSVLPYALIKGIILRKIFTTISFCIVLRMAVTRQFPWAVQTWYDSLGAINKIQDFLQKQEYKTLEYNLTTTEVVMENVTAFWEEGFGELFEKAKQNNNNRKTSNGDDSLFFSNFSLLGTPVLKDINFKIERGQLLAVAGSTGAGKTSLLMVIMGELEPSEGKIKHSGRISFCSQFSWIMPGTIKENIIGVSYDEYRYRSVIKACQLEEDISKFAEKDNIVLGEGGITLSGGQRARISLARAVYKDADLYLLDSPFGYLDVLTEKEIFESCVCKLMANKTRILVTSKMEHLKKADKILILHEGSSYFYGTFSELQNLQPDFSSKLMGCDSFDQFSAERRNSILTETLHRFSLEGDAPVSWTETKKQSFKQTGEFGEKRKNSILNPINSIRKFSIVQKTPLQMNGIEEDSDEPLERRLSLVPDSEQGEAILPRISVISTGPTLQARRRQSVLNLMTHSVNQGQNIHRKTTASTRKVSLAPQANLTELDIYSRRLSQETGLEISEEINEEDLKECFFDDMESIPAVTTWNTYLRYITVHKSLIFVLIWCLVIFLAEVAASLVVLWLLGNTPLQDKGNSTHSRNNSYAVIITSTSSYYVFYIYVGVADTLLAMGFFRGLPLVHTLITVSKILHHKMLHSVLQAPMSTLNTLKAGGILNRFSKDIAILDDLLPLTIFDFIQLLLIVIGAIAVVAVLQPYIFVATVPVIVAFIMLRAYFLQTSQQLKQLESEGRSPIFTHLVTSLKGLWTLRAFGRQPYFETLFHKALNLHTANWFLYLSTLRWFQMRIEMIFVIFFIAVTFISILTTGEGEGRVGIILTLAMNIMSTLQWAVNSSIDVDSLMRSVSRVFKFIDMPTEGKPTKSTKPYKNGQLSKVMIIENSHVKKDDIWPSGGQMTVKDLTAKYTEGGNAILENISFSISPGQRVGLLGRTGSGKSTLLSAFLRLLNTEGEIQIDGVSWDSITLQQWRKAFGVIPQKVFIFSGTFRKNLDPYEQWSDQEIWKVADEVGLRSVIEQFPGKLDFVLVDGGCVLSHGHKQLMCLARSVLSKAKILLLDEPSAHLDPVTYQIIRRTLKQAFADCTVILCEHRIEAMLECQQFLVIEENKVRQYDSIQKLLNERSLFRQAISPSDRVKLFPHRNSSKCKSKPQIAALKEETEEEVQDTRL
property.name: EC50

- COCC1(c2cnc(OC(C)C)c(C3(C(=O)NS(=O)(=O)c4cccc5ccccc45)CC3)c2)CC1: < 3 µM
- Cc1cnc(N(C)C)cc1C1(C(=O)NS(=O)(=O)c2cccc3ncccc23)CC1: 3 to 10 µM
- Cc1cnc(F)cc1C1(C(=O)NS(=O)(=O)c2cccc3ncccc23)CC1: > 10 µM
- Cc1cnc(OCC2CC2)c(C2(C(=O)NS(=O)(=O)c3cccc4[nH]ccc34)CC2)c1: < 3 µM
- COc1cnc(OC(C)C)c(C2(C(=O)NS(=O)(=O)c3cccc4ncccc34)CC2)c1: < 3 µM
- CC(C)Oc1ccc(C2CCC2)nc1C1(C(=O)NS(=O)(=O)c2cccc3ncccc23)CC1: < 3 µM
- Cc1cnc(OCC2CC2)c(C2(C(=O)NS(=O)(=O)c3cccc4ncccc34)CC2)c1: < 3 µM
- COc1cc(C2(C(=O)NS(=O)(=O)c3cccc4ncccc34)CC2)c(Cl)cn1: 3 to 10 µM

###

# pEC50 annotations
biological target: F508delCFTR (Homo sapiens, UniProt P13569, DEL508-508); construct: expressed in transfected cells; host or cells: CFBE41o- human lung derived epithelial cells (CFBE41o-F508delCFTR-HRP), doxycycline-inducible; test: Cell Surface Expression-Horse Radish Peroxidase (CSE-HRP) Assay; format: cell-based; details: test compound alone, without co-corrector; read-out: EC50 (without co-corrector)
pEC50: −log10 of the molar value.
property.name: pEC50

• CCOc1ccc2nc(S(=O)(=O)NC(=O)C3(c4cccc(Cl)c4)CC3)sc2c1 = < 5.00
• Cc1ccccc1S(=O)(=O)NC(=O)C1(c2ccc(Cl)cc2Cl)CC1 = 5.00 to 5.52
• COc1ccc(C)c(C)c1C1(C(=O)NS(=O)(=O)c2cccc3ncccc23)CC1 = > 5.52
• COc1ncc(C2CCC2)cc1C1(C(=O)NS(=O)(=O)c2cccc3ccccc23)CC1 = 5.00 to 5.52
• O=C(NS(=O)(=O)c1cccc2c1CCCN2)C1(c2ccc(C(F)(F)F)nc2C2CC2)CC1 = 5.00 to 5.52
• COc1ncc(C2CCC2)cc1C1(C(=O)NS(=O)(=O)c2cccc3[nH]ncc23)CC1 = 5.00 to 5.52
• Cc1ccc(OC(C)C)c(C2(C(=O)NS(=O)(=O)c3cccc4ncccc34)CC2)c1 = > 5.52
• COc1ncc(C(F)(F)F)cc1C1(C(=O)NS(=O)(=O)c2cccc3cnn(C)c23)CC1 = 5.00 to 5.52

###

target: F508delCFTR (Homo sapiens, UniProt P13569, DEL508-508); construct: expressed in transfected cells; host or cells: CFBE41o- human lung derived epithelial cells (CFBE41o-F508delCFTR-HRP), doxycycline-inducible; experiment: Cell Surface Expression-Horse Radish Peroxidase (CSE-HRP) Assay; format: cell-based; details: without co-corrector; maximum at any tested concentration; read-out: Maximum % activity (without co-corrector);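 for Maximum % activity (without co-corrector): % of on-plate positive control chromenyl benzoic acid corrector at 2 or 3 µM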
Emax for assorted molecules
property.name: Emax

- CC(C)Oc1cnc(C2CCC2)cc1C1(C(=O)NS(=O)(=O)c2cccc3ncccc23)CC1: > 150%
- COc1ncc(C2CCC2)cc1C1(C(=O)NS(=O)(=O)c2cccc3nc(C)ccc23)CC1: > 150%
- COc1cc(C2CCC2)cc(OC)c1C1(C(=O)NS(=O)(=O)c2cccc3cnn(C)c23)CC1: > 150%
- COc1ccc(C)cc1C1(C(=O)NS(=O)(=O)c2cccc3nc(C)ccc23)CC1: > 150%
- COc1ncc(C(F)(F)F)cc1C1(C(=O)NS(=O)(=O)c2cccc3[nH]ccc23)CC1: > 150%
- COc1ccc(C(C)(C)C)cc1C1(C(=O)NS(=O)(=O)c2cccc3ncccc23)CC1: > 150%
- Cc1ccc(S(=O)(=O)NC(=O)C2(c3cccc(Cl)c3)CC2)nc1: < 50%
- COc1ccc(C)c(OC)c1C1(C(=O)NS(=O)(=O)c2cccc3nc(C)ccc23)CC1: > 150%
- O=C(N1CCc2ccc(S(=O)(=O)NC(=O)C3(c4cccc(Cl)c4)CC3)cc2C1)C(F)(F)F: < 50%
- Cc1ccc2c(S(=O)(=O)NC(=O)C3(c4cc(Cl)ccc4OC(F)F)CC3)cccc2n1: > 150%
- Cc1noc(C)c1S(=O)(=O)NC(=O)C1(c2ccc(Cl)cc2Cl)CC1: < 50%
- COc1ncc(C2CCC2)cc1C1(C(=O)NS(=O)(=O)c2cccc3ncccc23)CC1: > 150%
- COc1ccc(C)cc1C1(C(=O)NS(=O)(=O)c2cccc3nc(N)ccc23)CC1: > 150%
- COc1cc(C2CCC2)cc(OC)c1C1(C(=O)NS(=O)(=O)c2cccc3ncccc23)CC1: > 150%
- O=C(NS(=O)(=O)c1cccc2ncccc12)C1(c2cccc(Br)c2)CC1: > 150%
- COc1ccc(C(F)(F)F)cc1C1(C(=O)NS(=O)(=O)c2cccc3ncccc23)CC1: > 150%

###

Each record here notes measured EC50.
molecular target: F508delCFTR (Homo sapiens, UniProt P13569, DEL508-508); construct: expressed in transfected cells; host or cells: CFBE41o- human lung derived epithelial cells (CFBE41o-F508delCFTR-HRP), doxycycline-inducible; assay: Cell Surface Expression-Horse Radish Peroxidase (CSE-HRP) Assay; assay type: cell-based; settings: test compound with co-corrector; read-out: EC50 (with co-corrector);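 for EC50 (with co-corrector): co-corrector chromenyl benzoic acid corrector at 2 or 3 µM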
property.name: EC50

- Cc1ccc2c(S(=O)(=O)NC(=O)C3(c4cc(C5CC5)cnc4OC(C)C)CC3)cccc2n1: < 3 µM
- COc1ncc(C2(C(=O)NS(=O)(=O)c3cccc4ncccc34)CC2)c(OC)n1: > 10 µM
- CCc1cnc(OCCOC)c(C2(C(=O)NS(=O)(=O)c3cccc4[nH]ccc34)CC2)c1: < 3 µM
- CC(C)Oc1ncccc1C1(C(=O)NS(=O)(=O)c2cccc3ncccc23)CC1: 3 to 10 µM

###

biological target: F508delCFTR (Homo sapiens, UniProt P13569, DEL508-508); construct: expressed in transfected cells; host or cells: CFBE41o- human lung derived epithelial cells (CFBE41o-F508delCFTR-HRP), doxycycline-inducible; test: Cell Surface Expression-Horse Radish Peroxidase (CSE-HRP) Assay; type: cell-based; details: with co-corrector; read-out: EC50 (with co-corrector);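 for EC50 (with co-corrector): co-corrector chromenyl benzoic acid corrector at 2 or 3 µM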
pEC50: −log10 of the molar value.
As shown below, each of these molecules has a reported pEC50 value.
property.name: pEC50

• Cc1ccc(O[C@@H]2CCOC2)c(C2(C(=O)NS(=O)(=O)c3cccc4ncccc34)CC2)c1 = > 5.52
• COc1ccc(C(C)C)cc1C1(C(=O)NS(=O)(=O)c2cccc3ncccc23)CC1 = > 5.52
• CCc1ccc(O[C@H](C)COC)c(C2(C(=O)NS(=O)(=O)c3cccc4nc(C)ccc34)CC2)c1 = > 5.52

###

molecular target: F508delCFTR (Homo sapiens, UniProt P13569, DEL508-508); construct: expressed in transfected cells; host or cells: CFBE41o- human lung derived epithelial cells (CFBE41o-F508delCFTR-HRP), doxycycline-inducible; test: Cell Surface Expression-Horse Radish Peroxidase (CSE-HRP) Assay; type: cell-based; settings: test compound without co-corrector; maximum at any tested concentration; read-out: Maximum % activity (without co-corrector);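 for Maximum % activity (without co-corrector): % of on-plate positive control chromenyl benzoic acid corrector at 2 or 3 µM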
property.name: Emax

• CCc1ncc(OC)cc1C1(C(=O)NS(=O)(=O)c2cccc3ncccc23)CC1 = < 50%
• CCc1ccncc1C1(C(=O)NS(=O)(=O)c2cccc3ncccc23)CC1 = < 50%
• Cc1cnc(N2CCN(C)CC2)c(C2(C(=O)NS(=O)(=O)c3cccc4ncccc34)CC2)c1 = < 50%
• Cc1cnc(N2CCOCC2)cc1C1(C(=O)NS(=O)(=O)c2cccc3ncccc23)CC1 = < 50%
• O=C(NS(=O)(=O)c1cccc2ncccc12)C1(c2cc(Cl)cnc2F)CC1 = < 50%
• Cc1cnc(N(C)C)c(C2(C(=O)NS(=O)(=O)c3cccc4ncccc34)CC2)c1 = 50 to 150%
• Cc1cnc(OC(C)C)c(C2(C(=O)NS(=O)(=O)c3cccc4[nH]ccc34)CC2)c1 = > 150%
• Cc1cnc(OC(C)C)c(C2(C(=O)NS(=O)(=O)c3cccc4nc(C)ccc34)CC2)c1 = > 150%
• COc1ncc(C2(C(=O)NS(=O)(=O)c3cccc4c3CCCN4)CC2)c(OC)n1 = < 50%
• CCc1cnc(N(C)C)c(C2(C(=O)NS(=O)(=O)c3cccc4ncccc34)CC2)c1 = > 150%
• COc1cnc(C2CC2)c(C2(C(=O)NS(=O)(=O)c3cccc4ncccc34)CC2)c1 = > 150%
• O=C(NS(=O)(=O)c1cccc2ncccc12)C1(c2cc(C3CCC3)cnc2N2CCOCC2)CC1 = 50 to 150%
• COc1ccc(C2(C(=O)NS(=O)(=O)c3cccc4ccccc34)CC2)c(C)n1 = 50 to 150%
• COc1cnc(OCC(C)C)c(C2(C(=O)NS(=O)(=O)c3cccc4ncccc34)CC2)c1 = > 150%
• O=C(NS(=O)(=O)c1cccc2ncccc12)C1(c2cc(C3CCC3)cnc2OCC2CC2)CC1 = > 150%
• CCc1cnc(N2CCCC2)c(C2(C(=O)NS(=O)(=O)c3cccc4c3CCCN4)CC2)c1 = > 150%
• CCc1cnc(OCC(C)C)c(C2(C(=O)NS(=O)(=O)c3cccc4[nH]ccc34)CC2)c1 = > 150%
